target: human MC4R (Homo sapiens, UniProt P32245)
Construct: host or cells: HEK-293 cells stably expressing the GScAMP22F split-luciferase cAMP sensor and hMC4R, G418 selection
Sequence (P32245 whole entry): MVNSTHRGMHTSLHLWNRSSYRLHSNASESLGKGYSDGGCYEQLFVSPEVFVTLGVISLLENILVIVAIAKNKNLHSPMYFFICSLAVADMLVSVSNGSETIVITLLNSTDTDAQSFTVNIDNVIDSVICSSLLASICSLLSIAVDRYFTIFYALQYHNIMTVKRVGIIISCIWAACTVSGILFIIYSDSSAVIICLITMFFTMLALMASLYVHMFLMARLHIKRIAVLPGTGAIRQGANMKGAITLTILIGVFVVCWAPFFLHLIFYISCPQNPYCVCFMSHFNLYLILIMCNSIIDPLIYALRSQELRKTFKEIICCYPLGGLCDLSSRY
procedure_text: split-luciferase cAMP sensor assay, agonist mode (measurement window 1), hMC4R
Format: cell-based
applied_conditions: % maximal activation, agonist mode; read-out: MC4R cAMP % max activation
Positions of bridges follow the written chain, without caps; N, C: chain ends. Non-standard residues stand in square brackets, D forms with d. Residues, ends and D or L forms follow the SMILES beside them. 2Pal = N[C@@H](Cc1ccccn1)C(=O)O; 3Pal = N[C@@H](Cc1cccnc1)C(=O)O; Cit = NC(=O)NCCC[C@H](N)C(=O)O; Nle = CCCC[C@H](N)C(=O)O; Aib = CC(C)(N)C(=O)O
Please provide measured Emax for the entries that follow.

QUERY: Param item = CC(=O)N[C@@H](CCCNC(=N)N)C(=O)N[C@H]1CSSC[C@@H](C(N)=O)NC(=O)[C@@H](Cc2c[nH]c3ccccc23)NC(=O)[C@H](CCCNC(=N)N)NC(=O)[C@@H](Cc2ccccc2)NC(=O)[C@H](CCCNC(N)=O)NC(=O)[C@H](C)NC1=O [CTX-1288] (Ac-RCA[Cit][dF]R[dW]C-NH2; disulfide 2-8) ; retrieve measured Emax.
RESULT: 87%

QUERY: Param item = CCCC[C@H](NC(=O)[C@H](CCCNC(=N)N)NC(C)=O)C(=O)N[C@H]1CSSC[C@@H](C(N)=O)NC(=O)[C@H](Cc2c[nH]c3ccccc23)NC(=O)[C@H](CCCNC(=N)N)NC(=O)[C@@H](Cc2ccccc2)NC(=O)[C@H](Cc2cccnc2)NC1=O [CTX-1620] (Ac-R[Nle]C[3Pal][dF]RWC-NH2; disulfide 3-8 (inferred)) ; retrieve measured Emax.
RESULT: 91%

QUERY: Param item = CC(=O)N[C@@H](CCCNC(=N)N)C(=O)N[C@H]1CSSC[C@@H](C(N)=O)NC(=O)[C@@H](Cc2c[nH]c3ccccc23)NC(=O)[C@H](CCCNC(=N)N)NC(=O)[C@@H](Cc2ccccc2)NC(=O)[C@H](CCCNC(=N)N)NC(=O)[C@@H](C)NC1=O [CTX-1263] (Ac-RC[dA]R[dF]R[dW]C-NH2; disulfide 2-8) ; retrieve measured Emax.
RESULT: 93%

QUERY: Param item = CC(=O)N[C@H]1CSSC[C@@H](C(N)=O)NC(=O)[C@H](Cc2c[nH]c3ccccc23)NC(=O)[C@H](CCCNC(=N)N)NC(=O)[C@@H](Cc2ccccc2)NC(=O)[C@H](CCCNC(N)=O)NC(=O)[C@@H](C)NC1=O [CTX-1628, cyclo(Cys-D-Ala-Cit-D-Phe-Arg-Trp-Cys)] (Ac-C[dA][Cit][dF]RWC-NH2; disulfide 1-7 (inferred)) ; retrieve measured Emax.
RESULT: 99%

QUERY: Param item = CC(=O)N[C@@H](CCCNC(=N)N)C(=O)N[C@H]1CSSC[C@@H](C(N)=O)NC(=O)[C@H](Cc2ccccc2)NC(=O)[C@H](CCCNC(=N)N)NC(=O)[C@@H](Cc2ccccc2)NC(=O)[C@H](Cc2ccccn2)NC(=O)C(C)(C)NC1=O [CTX-1604] (Ac-RC[Aib][2Pal][dF]RFC-NH2; disulfide 2-8 (inferred)) ; retrieve measured Emax.
RESULT: 96%

QUERY: Param item = N=C(N)NCCC[C@@H]1NC(=O)CNC(=O)CSC[C@@H](C(N)=O)NC(=O)[C@H](Cc2c[nH]c3ccccc23)NC(=O)[C@H](CCCNC(=N)N)NC(=O)[C@@H](Cc2ccccc2)NC1=O [CTX-1645] ({CH2CO}-GR[dF]RWC-NH2; thioether N-6) ; retrieve measured Emax.
RESULT: 110%
